measured on: serotonin receptor 5HT2B (Homo sapiens)
Sequence (P41595 whole entry): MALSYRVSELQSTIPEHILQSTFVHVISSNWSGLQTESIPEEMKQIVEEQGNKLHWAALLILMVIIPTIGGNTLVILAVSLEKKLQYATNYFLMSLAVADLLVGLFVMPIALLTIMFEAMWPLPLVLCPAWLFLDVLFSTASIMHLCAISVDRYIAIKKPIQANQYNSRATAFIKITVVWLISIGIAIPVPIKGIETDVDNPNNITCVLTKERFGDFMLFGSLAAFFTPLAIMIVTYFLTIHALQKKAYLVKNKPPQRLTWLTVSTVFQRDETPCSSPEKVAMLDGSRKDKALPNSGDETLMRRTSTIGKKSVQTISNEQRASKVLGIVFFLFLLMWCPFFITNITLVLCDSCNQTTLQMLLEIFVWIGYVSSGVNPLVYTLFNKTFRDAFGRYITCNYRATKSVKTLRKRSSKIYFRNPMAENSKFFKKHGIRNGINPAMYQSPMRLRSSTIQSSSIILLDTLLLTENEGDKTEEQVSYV
experiment: Off-target interaction determined by the PDSP
Type: binding
particulars: read-out: Off-target, receptor (h, unless noted) (Ki, μM): 5HT2B
We label by threshold. Values of Ki strictly beneath 0.2 µM are 1. Values of 0.2 µM and up are 0.

# strict comparison: is reported Ki < 0.2 µM? input = OC[C@@]12C[C@@H]1[C@@H](n1cnc3c(NC(C4CCC4)C4CCC4)ncnc31)[C@H](O)[C@@H]2O
0

# strict comparison: is reported Ki < 0.2 µM? input = CNC(=O)[C@@]12C[C@@H]1[C@@H](n1cnc3c(NC(C4CC4)C4CC4)nc(Cl)nc31)[C@H](O)[C@@H]2O
1

# strict comparison: is reported Ki < 0.2 µM? input = O[C@H]1[C@H](n2cnc3c(NC(C4CCC4)C4CCC4)nc(Cl)nc32)[C@H]2C[C@@]2(CSc2ccccc2F)[C@H]1O
0

# strict comparison: is reported Ki < 0.2 µM? input = CNC(=O)[C@@]12C[C@@H]1[C@@H](n1cnc3c(NC4CCCC4)nc(Cl)nc31)[C@H](O)[C@@H]2O [Compound 6e, reference compound]
1

# strict comparison: is reported Ki < 0.2 µM? input = O=C(NCCO)[C@@]12C[C@@H]1[C@@H](n1cnc3c(N[C@H]4C[C@H]5CC[C@@H]4C5)nc(Cl)nc31)[C@H](O)[C@@H]2O
0

# strict comparison: is reported Ki < 0.2 µM? input = CCOC(=O)[C@@]12C[C@@H]1[C@@H](n1cnc3c(NC(C4CC4)C4CC4)nc(Cl)nc31)[C@H](O)[C@@H]2O
1

# strict comparison: is reported Ki < 0.2 µM? input = O=C(NC1CC1)[C@@]12C[C@@H]1[C@@H](n1cnc3c(N[C@H]4C[C@H]5CC[C@@H]4C5)nc(Cl)nc31)[C@H](O)[C@@H]2O
0

# strict comparison: is reported Ki < 0.2 µM? input = O[C@H]1[C@H](n2cnc3c(NC(C4CCC4)C4CCC4)ncnc32)[C@H]2C[C@@]2(CCl)[C@H]1O
0

# strict comparison: is reported Ki < 0.2 µM? input = CCOC(=O)[C@@]12C[C@@H]1[C@@H](n1cnc3c(NC(C4CCC4)C4CCC4)nc(Cl)nc31)[C@H](O)[C@@H]2O
1

# strict comparison: is reported Ki < 0.2 µM? input = NC(=O)c1ncn([C@H]2[C@H](O)[C@H](O)[C@]3(CO)C[C@H]23)n1
0
